Biological target: c-Kit(V654A) (Homo sapiens, UniProt P10721, V654A)
Construct: amino acids 544-end containing the V654A mutation; GST (N)
Sequence (P10721 544-976 V654A): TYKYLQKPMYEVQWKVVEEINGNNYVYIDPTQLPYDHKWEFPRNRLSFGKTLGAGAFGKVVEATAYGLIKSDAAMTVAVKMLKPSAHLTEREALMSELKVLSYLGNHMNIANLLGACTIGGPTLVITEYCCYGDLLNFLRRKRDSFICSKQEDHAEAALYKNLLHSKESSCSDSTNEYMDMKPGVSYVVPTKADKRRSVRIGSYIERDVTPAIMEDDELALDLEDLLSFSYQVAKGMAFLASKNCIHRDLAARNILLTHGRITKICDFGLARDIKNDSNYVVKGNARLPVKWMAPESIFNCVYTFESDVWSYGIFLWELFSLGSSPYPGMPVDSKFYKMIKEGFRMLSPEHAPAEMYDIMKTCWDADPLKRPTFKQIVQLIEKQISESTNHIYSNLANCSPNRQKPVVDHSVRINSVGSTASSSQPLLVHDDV
Assay: c-Kit(V654A) assay
Settings: recombinant human c-Kit aa 544-end, 200 μM ATP, 1.4E-06 means 1.4×10^−6, read-out: Inhibition (IC50) of c-KIT (V654A)
measured attribute: IC50 (nM)

Record excerpt, results attached:
| smiles str | measured result |
| --- | --- |
| CN1CCC(C(=O)c2ccc(-n3cc(-c4cc5cc(F)ccc5[nH]c4=O)nn3)cc2)CC1 | 35 |
| O=C(c1ccc(-n2cc(-c3cc4cc(Cl)ccc4[nH]c3=O)nn2)cc1)N1CC[C@H](F)C1 | 40 |

[A] CN1CCC(NC(=O)c2ccc(-n3cc(-c4cc5ccccc5[nH]c4=O)nn3)cc2)CC1
[B] O=C1COCCN1c1ccc(-n2cc(-c3cc4ccncc4[nH]c3=O)nn2)cc1
Query string: Which one would you say has the larger IC50 value: A , or B ? Kindly state the label of the option you pick.
Result string: B
